- tgt: Androgen receptor (Homo sapiens) (UniProt P10275)
- Sequence (P10275 whole entry, looked up): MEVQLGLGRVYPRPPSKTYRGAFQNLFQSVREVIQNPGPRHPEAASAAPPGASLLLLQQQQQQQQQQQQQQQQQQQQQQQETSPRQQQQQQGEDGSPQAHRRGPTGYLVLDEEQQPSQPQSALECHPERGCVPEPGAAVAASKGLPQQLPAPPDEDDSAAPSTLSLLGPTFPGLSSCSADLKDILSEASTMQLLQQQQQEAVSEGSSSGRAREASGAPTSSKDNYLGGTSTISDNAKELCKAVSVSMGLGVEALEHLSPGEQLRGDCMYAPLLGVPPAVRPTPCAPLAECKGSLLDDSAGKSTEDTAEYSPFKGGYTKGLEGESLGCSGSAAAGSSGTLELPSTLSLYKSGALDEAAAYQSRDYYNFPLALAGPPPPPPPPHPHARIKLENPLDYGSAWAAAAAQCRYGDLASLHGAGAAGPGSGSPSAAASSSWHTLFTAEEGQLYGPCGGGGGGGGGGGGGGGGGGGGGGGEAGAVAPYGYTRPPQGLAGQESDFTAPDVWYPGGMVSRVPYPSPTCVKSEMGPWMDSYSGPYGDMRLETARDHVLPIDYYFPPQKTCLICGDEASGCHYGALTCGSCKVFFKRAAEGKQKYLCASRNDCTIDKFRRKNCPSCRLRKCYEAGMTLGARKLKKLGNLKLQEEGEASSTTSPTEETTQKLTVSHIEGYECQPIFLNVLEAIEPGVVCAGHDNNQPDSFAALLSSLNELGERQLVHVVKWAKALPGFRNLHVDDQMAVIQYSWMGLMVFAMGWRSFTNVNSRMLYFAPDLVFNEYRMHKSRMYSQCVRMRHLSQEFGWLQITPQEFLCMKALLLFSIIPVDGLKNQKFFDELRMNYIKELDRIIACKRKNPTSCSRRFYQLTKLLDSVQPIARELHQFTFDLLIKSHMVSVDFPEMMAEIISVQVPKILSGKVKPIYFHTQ
- experimentalProtocol: qHTS assay to identify small molecule antagonists of the androgen receptor (AR) signaling pathway using the MDA cell line in the presence of 0.5 nM R1881 (AID 1259243); note: nearly all actives have a fitted effect of over 50% in size; note: potency is the fitted concentration of half-maximal effect
- condition: MDA-kb2 MMTV-luciferase, R1881 0.5 nM, 16 h; series mostly up to 92.4 µM
Results filed as inconclusive are left out. The source made the active and inactive calls. Calls come from the whole dose curve; as a rule, active = well fitted inhibition curve with a large enough effect in the repeat runs; inconclusive = weak or mixed curves; inactive = no such curve, though single readings can be large or run the other way.

{"columns": ["compoundSmiles", "Potency"],
 "data": [
  ["N#CC(C#N)=NNc1cccc(Cl)c1", "1540 nM (active)"],
  ["O=c1[nH]c2cc(Cl)ccc2n1C1CCNCC1", "inactive"],
  ["O=c1[nH]c(Cl)c(Cl)cc1Cl", "inactive"],
  ["Cc1ccc([N+](=O)[O-])[c]2c1[O][Hg]2", "2370 nM (active)"],
  ["C=CC(=O)[O][Sn]([CH2]CCC)([CH2]CCC)[CH2]CCC", "545 nM (active)"],
  ["CCC[CH2][Sn]([CH2]CCC)([CH2]CCC)[O][Sn]([CH2]CCC)([CH2]CCC)[CH2]CCC", "189 nM (active)"],
  ["C[C@@H]1CC2=CC(=O)CC[C@@H]2[C@H]2CC[C@@]3(C)[C@@H](CC[C@]3(C)O)[C@@H]21", "inactive"],
  ["CCOC(=O)Cc1ccccc1", "inactive"],
  ["CC#C[C@]1(O)CC[C@H]2[C@@H]3C[C@H](C)C4=CC(=O)CC[C@]4(C)[C@H]3CC[C@@]21C", "inactive"],
  ["N#Cc1sc2c(=O)c3ccccc3c(=O)c=2sc1C#N", "4860 nM (active)"],
  ["COc1ccc(Cc2nccc3cc(OC)c(OC)cc23)cc1OC", "6680 nM (active)"]
]}

* * *

- tgt: Retinoic acid receptor RXR-alpha (Homo sapiens) (UniProt P19793)
- Sequence (P19793 whole entry, looked up): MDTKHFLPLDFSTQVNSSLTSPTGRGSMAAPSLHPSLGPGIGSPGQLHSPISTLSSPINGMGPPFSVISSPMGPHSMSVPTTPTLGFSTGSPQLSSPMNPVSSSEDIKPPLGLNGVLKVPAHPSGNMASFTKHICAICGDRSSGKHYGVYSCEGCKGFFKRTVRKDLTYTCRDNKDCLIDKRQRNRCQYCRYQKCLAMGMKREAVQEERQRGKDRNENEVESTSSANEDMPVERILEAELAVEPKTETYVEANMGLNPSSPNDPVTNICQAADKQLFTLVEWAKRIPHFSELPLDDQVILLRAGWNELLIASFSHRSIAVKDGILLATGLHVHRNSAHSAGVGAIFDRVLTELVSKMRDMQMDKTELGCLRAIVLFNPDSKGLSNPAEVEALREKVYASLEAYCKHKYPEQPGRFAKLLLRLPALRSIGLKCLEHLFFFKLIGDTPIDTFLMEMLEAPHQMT
- experimentalProtocol: qHTS assay to identify small molecule agonists of the RXR signaling pathway (AID 1159527); note: nearly all actives have a fitted effect of over 35% in size
- condition: HEK293T RXRa-UAS-bla, beta-lactamase ratio, 16 h; series mostly up to 76.8 µM
Records with an inconclusive call do not appear. Calls of active or inactive are those of the source. Calls follow the shape of the full dose curve.
Possible outcomes: 1 = active, -1 = inactive

{"columns": ["compound", "qualitativeLabel"],
 "data": [
  ["CCCC[N+]1(C)CCCC1 (tested in a mixture with another compound)", -1],
  ["COP(=S)(OC)Oc1ccc([N+](=O)[O-])c(C)c1", -1],
  ["CCNc1nc(NC(C)C(C)C)nc(SC)n1 (configuration not stated)", -1],
  ["CCOC(=O)Cc1ccccc1", -1],
  ["CC(=O)[O-].CC(=O)[O-].O.O.[Zn+2]", -1],
  ["CCC(C)c1cccc(C(C)CC)c1O (configuration not stated)", -1],
  ["Cc1ccc2cc3c(ccc4ccccc43)c3c2c1CC3", -1],
  ["CCCCON=O", -1],
  ["BrCCCBr", -1],
  ["CC1(C)[C@H](/C=C2\\CCSC2=O)[C@@H]1C(=O)OCc1coc(Cc2ccccc2)c1", -1],
  ["c1ccc(N=NNc2ccccc2)cc1", -1],
  ["C[C@@H]1CC2=CC(=O)CC[C@@H]2[C@H]2CC[C@@]3(C)[C@@H](CC[C@]3(C)O)[C@@H]21", -1],
  ["Oc1ccc2[nH]cc(CCCCN3CC=C(c4ccccc4)CC3)c2c1", -1],
  ["CC(=O)[O-].CC(=O)[O-].O.O.O.[Pb+2]", -1],
  ["O=C(NC(=O)c1ccccc1Cl)Nc1ccc(OC(F)(F)F)cc1", -1],
  ["CCCCCON=O", -1],
  ["COC(=O)c1ccccc1S(=O)(=O)NC(=O)Nc1nc(C)nc(OC)n1", -1],
  ["CCC1(CC)C(=O)N=C(O)NC1=O", -1],
  ["COc1nc(C)nc(NC(=O)NS(=O)(=O)c2ccccc2Cl)n1", -1],
  ["CCCCN(CCCC)C(=S)[S-].CCCCN(CCCC)C(=S)[S-].[Ni+2]", -1],
  ["Cc1c([N+](=O)[O-])c(C)c([N+](=O)[O-])c(C(C)(C)C)c1[N+](=O)[O-]", 1],
  ["Cc1cccc(Cc2cnc[nH]2)c1C", -1],
  ["O=C(N[C@@H]1N=C(c2ccccc2F)c2cccc3c2N(CC3)C1=O)c1cc2ccccc2[nH]1", -1],
  ["O=[N+]([O-])c1ccc(Cl)c(Cl)c1Cl", -1],
  ["Nc1nc(N)nc(Cl)n1", -1],
  ["CN1C2CCC(C)(C)C1CC(OC(=O)C(O)(c1cccs1)c1cccs1)C2 (configuration not stated)", -1],
  ["O=C(O)CCCCCCNC1c2ccccc2CCc2ccccc21", -1],
  ["CCCCn1cc[n+](C)c1.[Cl][Fe-]([Cl])([Cl])[Cl]", -1],
  ["CCCCCCCCCCCCCCn1cc[n+](C)c1", -1],
  ["CCOP(=S)(OCC)Oc1cc(C)nc(N(CC)CC)n1", -1],
  ["BrCC(Br)(Br)Br", -1],
  ["Cc1ccn2nc(S(=O)(=O)Nc3c(F)cccc3F)nc2n1", -1],
  ["CNN", -1],
  ["CC(=O)C(Cl)C(=O)N(C)C (configuration not stated)", -1],
  ["CN", -1],
  ["CC1CN1 (configuration not stated)", -1],
  ["CC(Cc1ccc2c(c1)OCO2)NO (configuration not stated)", -1],
  ["CCCCN(CCCC)C(=S)S", -1],
  ["O=Cc1ccccc1", -1],
  ["C=CC(=C)C", -1],
  ["Cc1nn(-c2cc(NS(C)(=O)=O)c(Cl)cc2Cl)c(=O)n1C(F)F", -1],
  ["O=C(N[C@H]1N=C(c2ccccc2F)c2cccc3c2N(CC3)C1=O)c1cc2ccccc2[nH]1", -1],
  ["Nc1cc(Cl)ccc1Cl", -1],
  ["CCn1cc[n+](C)c1 (tested in a mixture with another compound)", -1],
  ["CN/C(=N\\[N+](=O)[O-])NCc1cnc(Cl)s1", -1],
  ["Clc1ccc(C(Cl)(Cl)Cl)cc1Cl", -1],
  ["CC(C)N(C(=O)SC/C(Cl)=C/Cl)C(C)C", -1],
  ["ClSC(Cl)(Cl)Cl", -1],
  ["ClC1=C(Cl)[C@]2(Cl)[C@H]3[C@H]([C@@H]4C=C[C@H]3C4)[C@@]1(Cl)C2(Cl)Cl", -1],
  ["CC(Cl)CCl (configuration not stated)", -1],
  ["O=S(=O)(O)F", -1],
  ["CCCCn1cc[n+](C)c1 (tested in a mixture with another compound)", -1]
]}
